- Tested on: MCF7
- EXPERIMENT: In vitro cytotoxic activity, MTT assay, MCF7
- Format: cell-based
- SETUP_CONDITIONS: Homo sapiens, 72 hours
- Excerpt: One of the parameters used, as the basis for colorimetric assays is the metabolic activity of viable cells. For example, a microtiter assay, which uses the tetrazolium salt MTT, is now widely used to quantitate cell proliferation and cytotoxicity. […] After it is solubilized, the formazan formed can easily and rapidly be quantified in a conventional ELISA plate reader at 570 nm (maximum absorbance). The quantity of reduced formazan corresponds to number of vital cells in the culture. […]
Decide using IC50 alone. Strictly below 40 µM: true (1). Equal to or above 40 µM: false (0).

smiles_data=CC(=O)c1cccc(CNc2nc(N[C@@H](CO)C(C)C)nc3c2nnn3C(C)C)c1 assigned_class="false (0)"
smiles_data=CC(C)[C@H](CO)Nc1nc(Nc2ccc(Br)cc2)c2nnn(C(C)C)c2n1 assigned_class="false (0)"
smiles_data=CC(C)[C@H](CO)Nc1nc(Nc2ccc(O)c(C(=O)O)c2)c2nnn(C(C)C)c2n1 assigned_class="true (1)"
smiles_data=CC(C)[C@H](CO)Nc1nc(Nc2ccc(Cl)c(C(=O)O)c2)c2nnn(C(C)C)c2n1 assigned_class="true (1)"

Where do the numbers come from? From patent US7816350B2.
